All values here come from patent US20110269834A1.

# study-target: SARS-CoV PLpro (Severe acute respiratory syndrome coronavirus)
# assay-info: biochemical
# study-conditions: read-out: IC50 (μM), enzyme inhibitory activity
test-readout: IC50 (µM)
Give bare numbers, in µM.

The molecule listed as CC(=O)Nc1ccc(C)c(C(=O)N[C@H](C)c2cccc3ccccc23)c1 has a reported IC50 of 2.64

* * *

# study-target: hUCH-L1 (Homo sapiens, UniProt P09936)
# Construct: purchased Biomol International
# Sequence (P09936 whole entry): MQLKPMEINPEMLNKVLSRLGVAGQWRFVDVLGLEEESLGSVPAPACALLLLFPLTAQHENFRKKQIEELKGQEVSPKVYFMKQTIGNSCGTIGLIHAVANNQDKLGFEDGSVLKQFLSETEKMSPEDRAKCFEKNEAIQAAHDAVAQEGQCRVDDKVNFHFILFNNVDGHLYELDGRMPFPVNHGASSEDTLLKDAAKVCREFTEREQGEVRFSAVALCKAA
# assay-info: Inhibitor specificity assay, UCH-L1
# Type: biochemical
# study-conditions: Table 6; assayed with 100 μM inhibitor, ubiquitin-AMC substrate
test-readout: IC50

molecule	study-target	observed
Cc1ccc(N)cc1C(=O)N[C@H](C)c1cccc2ccccc12 [Compound 24]	hUCH-L1 (Homo sapiens, UniProt P09936)	> 100 µM
CC(=O)Nc1ccc(C)c(C(=O)N[C@H](C)c2cccc3ccccc23)c1 [Compound 25]	hUCH-L1 (Homo sapiens, UniProt P09936)	> 100 µM

Let us move to another entry and its IC50.
The molecule listed as Cc1ccccc1C(=O)N[C@H](C)c1cccc2ccccc12 [Compound 5h] has a reported IC50 of > 100 µM
